IC50 values, listed per item
# experimental_target: Human PIP4K2C (Homo sapiens, UniProt Q8TBX8)
# Sequence (Q8TBX8 whole entry): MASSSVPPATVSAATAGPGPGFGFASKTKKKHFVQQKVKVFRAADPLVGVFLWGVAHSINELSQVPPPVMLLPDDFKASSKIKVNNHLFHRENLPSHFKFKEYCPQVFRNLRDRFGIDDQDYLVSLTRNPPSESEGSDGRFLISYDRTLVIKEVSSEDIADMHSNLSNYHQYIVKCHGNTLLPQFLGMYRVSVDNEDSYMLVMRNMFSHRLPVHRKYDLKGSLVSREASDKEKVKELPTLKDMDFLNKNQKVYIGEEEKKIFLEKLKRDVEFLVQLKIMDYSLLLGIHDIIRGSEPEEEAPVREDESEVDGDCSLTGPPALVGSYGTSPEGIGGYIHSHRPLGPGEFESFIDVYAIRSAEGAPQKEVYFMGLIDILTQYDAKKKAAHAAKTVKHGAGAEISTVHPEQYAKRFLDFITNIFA
# assay: Enzyme binding assay (KINOMEscan), active site-directed competition binding
# particulars: 11-point dose response, duplicate, top concentration 5 micromolar; read-out: Pip4k2c Kd: IC50

{"columns": ["compound", "experimental_target", "IC50"],
 "data": [
  ["O=C1CCCN1c1cncc(Nc2ncc(Cl)c(N3CCCCC3)n2)c1 [Compound 96]", "Human PIP4K2C (Homo sapiens, UniProt Q8TBX8)", "< 500 nM"],
  ["O=C1CCCN1c1cncc(Nc2ncc(Cl)c(N3CCCC(C4CCC4)C3)n2)c1 (centres unmarked) [Compound 123]", "Human PIP4K2C (Homo sapiens, UniProt Q8TBX8)", "< 500 nM"],
  ["O=C1CCCN1c1cncc(Nc2ncc(Cl)c(-c3cccc(N4CCC4)c3)n2)c1 [Compound 122]", "Human PIP4K2C (Homo sapiens, UniProt Q8TBX8)", "< 500 nM"],
  ["O=C1CCCN1c1cncc(Nc2ncc(F)c(-c3ccc(=O)n(C4COC4)c3)n2)c1 [Compound 155]", "Human PIP4K2C (Homo sapiens, UniProt Q8TBX8)", "< 500 nM"],
  ["O=C1CCCN1c1cncc(Nc2ncc(Cl)c(N3CCC(c4ccccn4)C3)n2)c1 (centres unmarked) [Compound 120]", "Human PIP4K2C (Homo sapiens, UniProt Q8TBX8)", "< 500 nM"],
  ["O=C(c1cc[nH]c(=O)c1)N1CCCC(c2nc(Nc3cncc(N4CCCC4=O)c3)ncc2Cl)C1 (centres unmarked) [Compound 164]", "Human PIP4K2C (Homo sapiens, UniProt Q8TBX8)", "< 500 nM"],
  ["O=C1CCCN1c1cncc(Nc2ncc(Cl)c(N3CCCC(O)C3)n2)c1 (centres unmarked) [Compound 99]", "Human PIP4K2C (Homo sapiens, UniProt Q8TBX8)", "< 500 nM"],
  ["O=C(c1ccc(F)cc1)N1CCCC(c2nc(Nc3cncc(N4CCCC4=O)c3)ncc2Cl)C1 (centres unmarked) [Compound 162]", "Human PIP4K2C (Homo sapiens, UniProt Q8TBX8)", "< 500 nM"]
]}

###

# experimental_target: endogenous PIP4K2C C-terminally tagged with HiBiT peptide in MOLT-4 cells (Homo sapiens, UniProt Q8TBX8)
# Construct: to C-terminally tag endogenous PIP4K2C with HiBiT peptide; host or cells: MOLT-4 (CRISPR-Cas9 knock-in clone)
# Sequence (Q8TBX8 whole entry): as above
# assay: HiBiT PIP4K2C degradation assay in MOLT-4 cells
# Assay type: cell-based
# particulars: 24 hours, 10-point dose response, top concentration 10 micromolar, read-out: HiBIT-degradation MOLT4 PIP4k2C 24 hours DC50

{"columns": ["compound", "DC50"],
 "data": [
  ["O=C(COc1cccc2c1C(=O)N(C1CCC(=O)NC1=O)C2=O)NCCCCCCCC(=O)N1CCC2(CC1)CCN(c1cncc(Nc3ncc(Cl)c(-c4cccc(-c5ccccc5)c4)n3)c1)C2=O (stereo not drawn) [Compound 77]", "< 500 nM"],
  ["O=C1CCC(Nc2ccc(N3CCC(CC(=O)N4CCC5(CC4)CCN(c4cncc(Nc6ncc(Cl)c(N7CCOC(c8ccccc8)C7)n6)c4)C5=O)CC3)cc2)C(=O)N1 (stereo not drawn) [Compound 181]", "< 500 nM"],
  ["CN1CCC(n2cc(-c3nc(Nc4cncc(N5CCC6(CCN(C(=O)CC7CCN(c8ccc(NC9CCC(=O)NC9=O)cc8)CC7)CC6)C5=O)c4)ncc3Cl)cn2)CC1 (stereo not drawn) [Compound 193]", "< 500 nM"]
]}

###

# experimental_target: endogenous PIP4K2C C-terminally tagged with HiBiT peptide in MOLT-4 cells (Homo sapiens)
# Construct: to C-terminally tag endogenous PIP4K2C with HiBiT peptide; host or cells: MOLT-4 (CRISPR-Cas9 knock-in clone)
# assay: HiBiT PIP4K2C degradation assay in MOLT-4 cells
# Format: cell-based
# particulars: 24 hours, 10-point dose response, top concentration 10 micromolar, read-out: HiBIT-degradation MOLT4 PIP4k2C 24 hours DC50
# Method: Following clonal selection, genotype was confirmed by Sanger sequencing. […] Nano-Glo® HiBiT Lytic Assay System was purchased from Promega (Madison, WI, Catalog number N3030). […] To study PIP4K2C degradation, 384-well plates were plated with a 10-point dose response curve, 3-fold dilution, in duplicate with a top starting concentration of 10 micromolar. […] Luminescence was measured with a PHERAstar FSX plate reader (BMG Labtech, Cary, NC). […]
quantity_measured: DC50

{"columns": ["compound", "experimental_target", "result"],
 "data": [
  ["O=C1CCC(Nc2ccc(N3CCC(CC(=O)N4CCC5(CC4)CCN(c4cncc(Nc6ncc(Cl)c(-c7cccc(C8CCCCC8)c7)n6)c4)C5=O)CC3)cc2)C(=O)N1 (centres unmarked)", "endogenous PIP4K2C C-terminally tagged with HiBiT peptide in MOLT-4 cells (Homo sapiens)", "0.5 to 1 µM"],
  ["O=C1CCC(Nc2ccc(C3CCN(CC(=O)N4CCC5(CC4)CCN(c4cncc(Nc6ncc(Cl)c(N7CCC[C@H](O)C7)n6)c4)C5=O)CC3)cc2)C(=O)N1 (some centres unmarked)", "endogenous PIP4K2C C-terminally tagged with HiBiT peptide in MOLT-4 cells (Homo sapiens)", "< 0.5 µM"],
  ["O=C1CCC(Nc2ccc(C3CCN(CC(=O)N4CCC5(CC4)CCN(c4cncc(Nc6ncc(Cl)c(-c7cccc(N8CCC8)c7)n6)c4)C5=O)CC3)cc2)C(=O)N1 (centres unmarked)", "endogenous PIP4K2C C-terminally tagged with HiBiT peptide in MOLT-4 cells (Homo sapiens)", "< 0.5 µM"],
  ["O=C(COc1cccc2c1CN(C1CCC(=O)NC1=O)C2=O)NCCCCCCCCCC(=O)Nc1cncc(Nc2ncc(Cl)c(-c3cccc(-c4ccccc4)c3)n2)c1 (centres unmarked)", "endogenous PIP4K2C C-terminally tagged with HiBiT peptide in MOLT-4 cells (Homo sapiens)", "< 0.5 µM"],
  ["O=C1CCC(N2C(=O)c3cccc(OCCCN4CCN(CCCCC(=O)Nc5cncc(Nc6ncc(Cl)c(-c7cccc(-c8ccccc8)c7)n6)c5)CC4)c3C2=O)C(=O)N1 (centres unmarked)", "endogenous PIP4K2C C-terminally tagged with HiBiT peptide in MOLT-4 cells (Homo sapiens)", "< 0.5 µM"]
]}

###

Quick reference for DC50 among some molecules
# experimental_target: endogenous PIP4K2C C-terminally tagged with HiBiT peptide in MOLT-4 cells (Homo sapiens, UniProt Q8TBX8)
# Construct: to C-terminally tag endogenous PIP4K2C with HiBiT peptide; host or cells: MOLT-4 (CRISPR-Cas9 knock-in clone)
# assay: HiBiT PIP4K2C degradation assay in MOLT-4 cells
# Assay type: cell-based
# particulars: 24 hours, 10-point dose response, top concentration 10 micromolar, read-out: HiBIT-degradation MOLT4 PIP4k2C 24 hours DC50

{"columns": ["molecule", "DC50"],
 "data": [
  ["O=C1CCC(N2Cc3cc(OCCCCCCCCN4CCC5(CC4)CCN(c4cncc(Nc6ncc(Cl)c(-c7cccc(-c8ccccc8)c7)n6)c4)C5=O)ccc3C2=O)C(=O)N1 (centres unmarked) [Compound 56]", "< 500 nM"],
  ["O=C1CCC(N2C(=O)c3cccc(OCCCCCCCCC(=O)N4CCC5(CC4)CCN(c4cncc(Nc6ncc(Cl)c(-c7cccc(-c8ccccc8)c7)n6)c4)C5=O)c3C2=O)C(=O)N1 (centres unmarked) [Compound 78]", "500 to 1000 nM"],
  ["O=C(CCCCCOc1cccc2c1C(=O)N(C1CCC(=O)NC1=O)C2=O)NCCCCCC(=O)Nc1cncc(Nc2ncc(Cl)c(-c3cccc(-c4ccccc4)c3)n2)c1 (centres unmarked) [Compound 83]", "1000 to 5000 nM"],
  ["O=C1CCC(Nc2ccc(N3CCC(CC(=O)N4CCC5(CC4)CCN(c4cncc(Nc6ncc(Cl)c(-c7cccc(N8CCCCC8)c7)n6)c4)C5=O)CC3)cc2)C(=O)N1 (centres unmarked) [Compound 182]", "< 500 nM"],
  ["O=C1CCC(N2C(=O)c3ccc(OCCCCC(=O)N4CCC5(CC4)CCN(c4cncc(Nc6ncc(Cl)c(-c7cccc(-c8ccccc8)c7)n6)c4)C5=O)cc3C2=O)C(=O)N1 (centres unmarked) [Compound 76]", "< 500 nM"],
  ["Cn1c(=O)n(C2CCC(=O)NC2=O)c2ccc(C3CCN(CC(=O)N4CCC(C(=O)Nc5cncc(Nc6ncc(Cl)c(-c7cccc(C8CC8)c7)n6)c5)CC4)CC3)cc21 (centres unmarked) [Compound 210]", "< 500 nM"],
  ["Cn1c(=O)n(C2CCC(=O)NC2=O)c2ccc(C3CCN(CC(=O)N4CCC5(CC4)CCN(c4cncc(Nc6ncc(Cl)c(-c7cccc(C8CC8)c7)n6)c4)C5=O)CC3)cc21 (centres unmarked) [Compound 209]", "< 500 nM"],
  ["O=C(COc1cccc2c1C(=O)N(C1CCC(=O)NC1=O)C2=O)NCCCCCCCCCC(=O)Nc1cncc(Nc2ncc(Cl)c(-c3cccc(-c4ccccc4)c3)n2)c1 (centres unmarked) [Compound 85]", "500 to 1000 nM"],
  ["O=C1CCC(Nc2ccc(C3CCN(C(=O)CN4CCC(C(=O)Nc5cncc(Nc6ncc(Cl)c(-c7cccc(C8CC8)c7)n6)c5)CC4)CC3)cc2)C(=O)N1 (centres unmarked) [Compound 202]", "< 500 nM"],
  ["O=C1CCC(Nc2ccc(C3CCN(CC(=O)N4CCC5(CC4)CCN(c4cncc(Nc6ncc(Cl)c(-c7cccc(N8CCCCC8)c7)n6)c4)C5=O)CC3)cc2)C(=O)N1 (centres unmarked) [Compound 185]", "< 500 nM"],
  ["O=C1CCC(N2C(=O)c3cccc(OCCCN4CCN(CCCCCCCC(=O)Nc5cncc(Nc6ncc(Cl)c(-c7cccc(-c8ccccc8)c7)n6)c5)CC4)c3C2=O)C(=O)N1 (centres unmarked) [Compound 67]", "< 500 nM"]
]}
